- study_system: Aβ(1-42) (Homo sapiens)
- Sequence (P05067 672-713): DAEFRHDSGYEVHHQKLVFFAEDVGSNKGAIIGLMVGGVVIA
- experiment_description: Aggregation inhibition by paper-based ECL assay with [Ru

>  <query_smiles>
Nc1c(/N=N/c2ccc(-c3ccc(/N=N/c4cc(S(=O)(=O)O)c5ccccc5c4N)cc3)cc2)cc(S(=O)(=O)O)c2ccccc12

>  <unit_abbreviation>
nM

>  <IC50>
1070

$$$$

Cited source for all entries: paper PMC5928890
